Exercise: state measured Binding of serum 62 to looped/cyclic peptides of protein X2 of SARS-CoV Urbani for each of the sequences provided.
- Tested on: antibodies in sera from SARS patients (sera 1a, 1b, 2, 6, 37, 62, London, SARS-yellow, SARS-green)
- Assay type: binding, human
Form field (numeric): enter value without unit.

Return value of Binding of serum 62 to looped/cyclic peptides of protein X2 of SARS-CoV Urbani for input LLACLCKHKKVSTNL , no commentary. 0.7

Return value of Binding of serum 62 to looped/cyclic peptides of protein X2 of SARS-CoV Urbani for input RRLLACLCKHKKVST , no commentary. 0.4

Return value of Binding of serum 62 to looped/cyclic peptides of protein X2 of SARS-CoV Urbani for input LKMLHSSSLTSLLKT , no commentary. 0.6

Return value of Binding of serum 62 to looped/cyclic peptides of protein X2 of SARS-CoV Urbani for input WIQFMMSRRRLLACL , no commentary. 0.3

Return value of Binding of serum 62 to looped/cyclic peptides of protein X2 of SARS-CoV Urbani for input LACLCKHKKVSTNLC , no commentary. 0.4

Return value of Binding of serum 62 to looped/cyclic peptides of protein X2 of SARS-CoV Urbani for input TVSQIQLSLLKVTAF , no commentary. 0.6

Return value of Binding of serum 62 to looped/cyclic peptides of protein X2 of SARS-CoV Urbani for input LLKVTAFQHQNSKKT , no commentary. 0.4

Return value of Binding of serum 62 to looped/cyclic peptides of protein X2 of SARS-CoV Urbani for input THRMCKYTQSTALQE , no commentary. 0.4

Return value of Binding of serum 62 to looped/cyclic peptides of protein X2 of SARS-CoV Urbani for input SLLKTHRMCKYTQST , no commentary. 0.4

Return value of Binding of serum 62 to looped/cyclic peptides of protein X2 of SARS-CoV Urbani for input KVSTNLCTHSFRKKQ , no commentary. 0.6

Return value of Binding of serum 62 to looped/cyclic peptides of protein X2 of SARS-CoV Urbani for input SSLTSLLKTHRMCKY , no commentary. 0.6

Return value of Binding of serum 62 to looped/cyclic peptides of protein X2 of SARS-CoV Urbani for input CKYTQSTALQELLIQ , no commentary. 0.4

Return value of Binding of serum 62 to looped/cyclic peptides of protein X2 of SARS-CoV Urbani for input TTSLSLHKLLQTLVL , no commentary. 0.6

Return value of Binding of serum 62 to looped/cyclic peptides of protein X2 of SARS-CoV Urbani for input HSSSLTSLLKTHRMC , no commentary. 0.4

Return value of Binding of serum 62 to looped/cyclic peptides of protein X2 of SARS-CoV Urbani for input ISPKFTTSLSLHKLL , no commentary. 0.7

Return value of Binding of serum 62 to looped/cyclic peptides of protein X2 of SARS-CoV Urbani for input SLSLHKLLQTLVLKM , no commentary. 0.5

Return value of Binding of serum 62 to looped/cyclic peptides of protein X2 of SARS-CoV Urbani for input QWIQFMMSRRRLLAC , no commentary. 0.5

Return value of Binding of serum 62 to looped/cyclic peptides of protein X2 of SARS-CoV Urbani for input KYTQSTALQELLIQQ , no commentary. 1.0

Return value of Binding of serum 62 to looped/cyclic peptides of protein X2 of SARS-CoV Urbani for input TSLSLHKLLQTLVLK , no commentary. 0.6

Return value of Binding of serum 62 to looped/cyclic peptides of protein X2 of SARS-CoV Urbani for input HKLLQTLVLKMLHSS , no commentary. 0.7
